Values were extracted from patent US20160251436A1.

testSystem: T1, soluble extracellular domain of human PD-1 (human, UniProt Q15116 25-170)
T1 construct: extracellular domain
T1 sequence (Q15116 25-170): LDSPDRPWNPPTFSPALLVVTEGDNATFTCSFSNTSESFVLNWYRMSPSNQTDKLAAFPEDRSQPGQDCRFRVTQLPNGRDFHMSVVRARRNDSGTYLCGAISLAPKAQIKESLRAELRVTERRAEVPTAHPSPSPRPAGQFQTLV
assayProcedure: BLI (ForteBio Octet Red), antibody on the biosensor, soluble PD-1 ECD as analyte
Quick reference for Kd among some binders
Give the value; after it, write the unit.

So what does the record say about Kd for 100413_D2VH9_100414_D2VK6 (antibody, V domains shown, Mouse variable regions; cloned into pFUSE-CHIg-mG1 (murine IgG1 Fc), expressed in HEK293) VH: EVQLQESGPDLVKPSQSLSLTCTVTGYSITSGYSWHWIRQFPGNKLEWMGFIHYSGDTNYNPSLKSRFSITRDTSKNQFFLHLNSVTPEDTATYYCASPSRLLFDYWGHGTTLTVSS VL: DIVMTQSPSSLTVTAGEKVTMSCKSSQSLLNSGTQKNYLTWYQQKPGQPPKLLIYWASTRESGVPDRFTGSGSGTDFTLTISSVQAEDLAVYYCQNDYSYPLTFGAGTKLEIK ? 8.2 nM

Now try 100246_A10VH1_100247_A10VK3 (antibody, V domains shown, Mouse variable regions; cloned into pFUSE-CHIg-mG1 (murine IgG1 Fc), expressed in HEK293) VH: EVQLQESGPGLVKPSQSLSLTCTVTGYSITSDYAWNWIRQFPGNKLEWMGYITYSGSPTYNPSLKSQFSITRDTSKNQFFLQLNSLTTEDTATYYCARGLGGHYFDYWGQGTTLTVSS VL: DIVLTQSPDTLSVTPGDRVSLSCRASQSISDYLHWYQQKSHESPRLLIKYASQSISGIPSRFSGSGSGSDFTLSINSVEPEDVGVYYCQNGHSYPYTFGGGTKLELK . 76.4 nM

Do the same for 100388_D4VH3_100389_D4VK5 (antibody, V domains shown, Mouse variable regions; cloned into pFUSE-CHIg-mG1 (murine IgG1 Fc), expressed in HEK293) VH: EVQLQESGAELVRPGASVTLSCKASGYTFTDYEMHWVKQTPVHGLEWIGVIDPGTGGTAYNQKFKVKALLTADKSSNTAYMELRSLTSEDSAVYYCTSEKFGSNYYFDYWGQGTTLTVSS VL: DIVITQTPLSLPVSLGDQASISCRSSQTIVHSDGNTYLEWYLQKPGQSPKLLIYKVSNRFSGVPDRFSGSGSGTDFTLKISRVEAEDLGVYYCFQGSHVPLTFGAGTKLEIK please 2.69 nM

What do we get for 100413_E1VH9_100414_E1VK5 (antibody, V domains shown, Mouse variable regions; cloned into pFUSE-CHIg-mG1 (murine IgG1 Fc), expressed in HEK293) VH: EVQLQESGPSLVQPSQSLSITCTVSGFSLTSYGVHWVRQSPGKGLEWLGVIWRGGNTDYNAAFMSRLSITKDNSKSQVFFKMNSLQADDTAIYYCAASMIGGYWGQGTTLTVSS VL: DIVLTQTPLSLPVSLGDQASISCRSSQSIVHSNGNTYLEWYLQKPGQSPKLLIYKVSNRFSGVPDRFSGSGSGTNFTLKISRVEAEDLGVYYCFQGSHVPLTFGAGTKLELK ? 58.9 nM
